# Tested on: NCI-H23 lung
# protocol: NCI tumour cell line growth inhibition, 48 h; in the data active = GI50 below about 0.43 µM; inactive = the rest
Your reply should match one of these outcome classes. class 1 (active), class 0 (inactive)

Field: outcome | Entry: CCN(CC)CCOc1cc2c(C(=O)OC)c(C)oc2cc1C(C)=O
class 0

Field: outcome | Entry: CN1CCN(Cc2ccc(NC(=O)c3cncc(C#Cc4c(N)ncc5cc(F)ccc45)c3)cc2C(F)(F)F)CC1
class 0

====

# System: NCI-H522 lung
# protocol: NCI tumour cell line growth inhibition, 48 h; in the data active means GI50 below about 0.43 µM; inactive means the rest
Your reply should match one of these outcome classes. 1 (active), -1 (inactive)

Field: outcome | Entry: COc1cc(-c2nc3ccccc3s2)ccc1OCc1nc2n(n1)S(=O)(=O)c1ccccc1N2C
-1

Field: outcome | Entry: O=C1/C(=C/c2ccc(Cl)cc2)CN(C(=O)C(Cl)Cl)C/C1=C\c1ccc(Cl)cc1
1

Field: outcome | Entry: Cc1ccc(S(=O)(=O)n2cc(C(=O)C(=O)Nc3ccncc3)c3ccccc32)cc1
-1

Field: outcome | Entry: COc1ccc(Nc2ccnc(NCCCNc3ccnc4cc(Cl)ccc34)n2)cc1
-1

Field: outcome | Entry: CC(=O)OCC1OC(S[As](C)C)C(OC(C)=O)C1OC(C)=O (stereo not given)
1

====

# Tested on: DMS 273 small cell lung
# protocol: NCI tumour cell line growth inhibition, 48 h
measurement.kind: TGI (µM)
Please state the figure in µM; there is no need to write the unit.

- compound: "CCCCCCCCCCCCNC1(C)CNCCCNCCNCCCNC1"
  TGI / µM: 1.6

Fill in: TGI of Clc1ccc2nc(CCSCCc3nc4ccc(Cl)cc4[nH]3)[nH]c2c1 is ___
29

Fill in: TGI of O=C(CC1(O)C(=O)Nc2c(Cl)cc(Cl)cc21)c1ccc2ccccc2c1 (centres undefined) is ___
15.2

Fill in: TGI of COc1ccc(/C(Cl)=C(\C=O)c2ccc(Cl)c(Cl)c2)cc1OC is ___
21.7

====

# Tested on: COLO 205 colon
# protocol: NCI tumour cell line growth inhibition, 48 h
The compounds listed here are annotated with their log10(TGI).
Kindly note that the scale is log10 and the underlying TGI is in µM.

Consider the reported log10(TGI) for these compounds:
- compound: "COc1ccc(Nc2ccnc(NCCCNc3ccnc4cc(Cl)ccc34)n2)cc1"
  measurement.kind: "log10(TGI)"
  recorded.number: 0.42
- compound: "COC(=O)c1c2c(c(C)[n+]([O-])c1C)C(=O)C(NCc1ccc(F)c(F)c1)=CC2=O"
  measurement.kind: "log10(TGI)"
  recorded.number: 0.32

Fill in: log10(TGI) of C/C(=C\c1ccn(-c2ccc(N)cc2)n1)[C@@H]1C[C@@H]2O[C@]2(C)CCC[C@H](C)[C@H](O)[C@@H](C)C(=O)C(C)(C)[C@@H](O)CC(=O)O1 is ___
-0.20

Fill in: log10(TGI) of Cc1c(CCl)c(=O)oc2c(C)c3occ(CCl)c(=O)c3cc12 is ___
1.52

Fill in: log10(TGI) of COC1CC2CCC(C)[C@](O)(O2)C(=O)C(=O)N2CCCCC2C(=O)OC(C(C)CC2CCC(O)C(OC)C2)CC(=O)C(C)C=C(C)C(OC(=O)CN(C)C)C(OC)C(=O)C(C)CC(C)/C=C/C=C/C=C\1C (some centres undefined) is ___
1.40

Fill in: log10(TGI) of O=C1/C(=C/c2ccc(Cl)cc2)CN(C(=O)C(Cl)Cl)C/C1=C\c1ccc(Cl)cc1 is ___
-0.12

Fill in: log10(TGI) of CC(C)=CCC[C@@H](C)C1=C(Nc2ccccc2)C(O)=C(C)C(=O)C1=O is ___
1.12

Fill in: log10(TGI) of CCOC(=O)c1c(Cl)c2c(n1Cc1cc(OC)cc(OC)c1)-c1oncc1CCC2 is ___
0.17

====

# Tested on: HOP-92 NSCLC
# protocol: NCI tumour cell line growth inhibition, 48 h
measurement.kind: TGI

Consider the reported TGI for these molecules:
- molecule: "O=C(O)c1cccc(CC(Br)C(=O)O)c1 (stereo unspecified)"
  TGI: "> 100 µM"
- molecule: "Cc1cc(C)nc(SC2=C(Nc3cccc(Cl)c3)C(=O)N(Cc3ccccc3)C2=O)n1"
  TGI: "> 170 µM"
- molecule: "C/C(=C\\COP(=O)(O)OP(=O)(O)O)CC/C=C(\\C)CNc1ccc([N+](=O)[O-])cc1"
  TGI: "> 100 µM"
- molecule: "COC(=O)C#Cc1ccc([N+](=O)[O-])cc1"
  TGI: "4.11 µM"
- molecule: "N#CC(C#N)=C1CCCCc2ccc([N+](=O)[O-])cc21"
  TGI: "> 100 µM"

Under HOP-92 NSCLC: TGI value of Cc1ccc(NC(=O)c2ccnc(N3CCCC3)c2)cc1-c1ccc(C(=O)NCC2CC2)cc1 ?
> 25 µM

Under HOP-92 NSCLC: TGI value of C/C(=C/CNc1ncnc2c1ncn2CCC#N)CO ?
> 100 µM

Under HOP-92 NSCLC: TGI value of CCOC(=O)c1cc2ncccc2c2ccccc12 ?
> 100 µM

Under HOP-92 NSCLC: TGI value of CC(=O)OCC1OC(S[As](C)C)C(OC(C)=O)C1OC(C)=O (stereo unspecified) ?
2.57 µM

Under HOP-92 NSCLC: TGI value of O=c1[nH]c2ccsc2c(=O)n1COCc1ccccc1 ?
> 100 µM

Under HOP-92 NSCLC: TGI value of C/C1=C\CC[C@@]2(C)O[C@@H]2[C@H]2OC(=O)C(C)C2C[C@H]1O (stereo partly specified) ?
> 100 µM

====

# Test system: SN12C renal
# protocol: NCI tumour cell line growth inhibition, 48 h
The molecules listed here are annotated with their TGI.
Please state the figure in µM; there is no need to write the unit.

Consider the reported TGI for these molecules:
- molecule: "COC(=O)C#Cc1ccc([N+](=O)[O-])cc1"
  TGI / µM: 3.22
- molecule: "CC(=C(C(=O)O)C(=O)O)c1cc(-c2cccs2)cc(-c2ccc(Cl)cc2)c1O"
  TGI / µM: 30.5
- molecule: "Cc1cc2nc3c(C#N)c(-c4ccccc4)cc(Nc4ccc(F)cc4)n3c2cc1C"
  TGI / µM: 53.7
- molecule: "COC1CC2CCC(C)[C@](O)(O2)C(=O)C(=O)N2CCCCC2C(=O)OC(C(C)CC2CCC(O)C(OC)C2)CC(=O)C(C)C=C(C)C(OC(=O)CN(C)C)C(OC)C(=O)C(C)CC(C)/C=C/C=C/C=C\\1C (some centres not stated)"
  TGI / µM: 18.7

Under SN12C renal: TGI value of CC(C)=CCC[C@@H](C)C1=C(Nc2ccccc2)C(O)=C(C)C(=O)C1=O ?
41.6

Under SN12C renal: TGI value of Cc1c(CCl)c(=O)oc2c(C)c3occ(CCl)c(=O)c3cc12 ?
56.4

====

# System: MOLT-4 leukemia
# protocol: NCI tumour cell line growth inhibition, 48 h
measurement.kind: GI50

Consider the reported GI50 for these molecules:
- entry.smiles: "COc1ccc(Nc2ccnc(NCCCNc3ccnc4cc(Cl)ccc34)n2)cc1"
  measured.on: "MOLT-4 leukemia"
  GI50: "1.45 µM"
- entry.smiles: "COc1ccc(F)cc1C(=O)c1cnc(NC2CCN(S(C)(=O)=O)CC2)nc1N"
  measured.on: "MOLT-4 leukemia"
  GI50: "2.66 µM"

Fill in: GI50 of COC(=O)c1c2c(c(C)[n+]([O-])c1C)C(=O)C(NCc1ccc(F)c(F)c1)=CC2=O is ___
2.44 µM

====

The molecules listed here are annotated with their TGI.
# System: NCI-H23 lung
# protocol: NCI tumour cell line growth inhibition, 48 h

Consider the reported TGI for these molecules:
- entry.smiles: "O=C(O)Cc1[nH]cnc1C(=O)O"
  measured.on: "NCI-H23 lung"
  result: "> 100 µM"
- entry.smiles: "Nc1nc(N)c(-c2ccc(Cl)cc2)c(CCC(=O)Nc2cccc(C(F)(F)F)c2)n1"
  measured.on: "NCI-H23 lung"
  result: "> 100 µM"
- entry.smiles: "Cc1ccc2sc3c(NCCCNCCO)nc4ccccc4c3c(=O)c2c1"
  measured.on: "NCI-H23 lung"
  result: "3.35 µM"
- entry.smiles: "CCN(CC)CCOc1cc2c(C(=O)OC)c(C)oc2cc1C(C)=O"
  measured.on: "NCI-H23 lung"
  result: "27.7 µM"
- entry.smiles: "COc1ccc(C(=O)N2CCN(c3ccc4[nH]c(=O)oc4c3)CC2)cc1"
  measured.on: "NCI-H23 lung"
  result: "> 100 µM"

Under NCI-H23 lung: TGI value of Cc1ccc(NC(=O)c2ccnc(N3CCCC3)c2)cc1-c1ccc(C(=O)NCC2CC2)cc1 ?
> 25 µM
